- target.system: UniProt:P17252
- procedure.text: Inhibition of TPA-induced membrane translocation of PKCalpha expressed in HEK293 cells assessed as protein found in membrane fraction at 100 uM after 2 hrs by Western blotting relative to TPA
- Assay type: cell-based
- Parameters: scale not given: the % may be the effect or the level left
reported.property: Activity (%)
The response must be a number in % with no trailing unit.

A selection of reference data follows.
- smiles.entry: "CCCCCCCCCCCCCCCCOc1c(O)cc(/C=C/c2cc(O)c(O)c(O)c2)cc1O"
  Activity [%]: 68.3
- smiles.entry: "COc1ccc(/C=C/c2cc(OC)cc(OC)c2)cc1"
  Activity [%]: 31.9
- smiles.entry: "CCCCCCCCCCCCCCCCOc1ccc(/C=C/c2cc(O)cc(O)c2)cc1"
  Activity [%]: 79.8

Input: Please indicate Activity recorded for "Oc1ccc(/C=C/c2cc(O)cc(O)c2)cc1"
Output: 60

Input: Return value of Activity for input "CCCCCCCCOc1cc(/C=C/c2ccc(O)cc2)cc(OCCCCCCCC)c1" , no commentary.
Output: 65.7

---

fold change (FC) by entry:
- Tested on: HEK293
- procedure.text: Cytotoxicity against HEK293 cells assessed as increase in cell viability at 100 uM after 48 hrs by MTT assay relative to resveratrol
- Assay type: cell-based
- applied.conditions: human, hek293, 48 h

Input: Give recorded fold change (FC). "COc1cc(/C=C/c2cc(OC)c(OC)c(OC)c2)cc(OC)c1OC"
Output: 2

Input: Quote fold change (FC) reported for COc1ccc(/C=C/c2cc(OC)cc(OC)c2)cc1 [TRISMETHOXYRESVERATROL] please.
Output: 4

Input: Given "CCCCCCCCOc1cc(/C=C/c2ccc(O)cc2)cc(OCCCCCCCC)c1" , respond with its fold change (FC).
Output: 4

Input: Hello, please tell me recorded fold change (FC) for this one: "CCCCCCCCCCCCCCCCOc1cc(/C=C/c2ccc(O)cc2)cc(OCCCCCCCCCCCCCCCC)c1"
Output: 2

Input: Return value of fold change (FC) for input "CCCCCCCCOc1ccc(/C=C/c2cc(O)cc(O)c2)cc1" , no commentary.
Output: 4

Input: Give a short answer stating reported fold change (FC) for "CCCCCCCCCCCCCCCCOc1ccc(/C=C/c2cc(O)cc(O)c2)cc1" .
Output: 2

---

- target.system: Protein kinase C alpha type (Homo sapiens) (UniProt P17252)
- procedure.text: Inhibition of TPA-induced membrane translocation of PKCalpha expressed in HEK293 cells assessed as protein found in membrane fraction at 100 uM after 2 hrs by Western blotting relative to TPA
- Type: cell-based
- Set-up: scale not given: the % may be the effect or the level left
reported.property: Activity

// worked examples, Activity included
- smiles.entry: "CCCCCCCCOc1ccc(/C=C/c2cc(O)cc(O)c2)cc1"
  result: "85.2%"
- smiles.entry: "COc1cc(/C=C/c2cc(OC)c(OC)c(OC)c2)cc(OC)c1OC"
  result: "44.8%"
- smiles.entry: "CCCCCCCCCCCCCCCCOc1cc(/C=C/c2ccc(O)cc2)cc(OCCCCCCCCCCCCCCCC)c1"
  result: "78.8%"

Now look at this one.
Input: Please report Activity for the following compound: "Oc1cc(/C=C/c2cc(O)c(O)c(O)c2)cc(O)c1O"
Output: 29.8%
